Reported Selectivity Ratio (A2 Ki /A1 Ki) values follow for various molecules
Biological target: adenosine A1 receptor (Bos taurus, UniProt P28190)
Construct: were homogenized with a Brinkman polytron and the membranes were collected by centrifugation; from tissue; host or cells: bovine caudate membranes
Sequence (P28190 1-326): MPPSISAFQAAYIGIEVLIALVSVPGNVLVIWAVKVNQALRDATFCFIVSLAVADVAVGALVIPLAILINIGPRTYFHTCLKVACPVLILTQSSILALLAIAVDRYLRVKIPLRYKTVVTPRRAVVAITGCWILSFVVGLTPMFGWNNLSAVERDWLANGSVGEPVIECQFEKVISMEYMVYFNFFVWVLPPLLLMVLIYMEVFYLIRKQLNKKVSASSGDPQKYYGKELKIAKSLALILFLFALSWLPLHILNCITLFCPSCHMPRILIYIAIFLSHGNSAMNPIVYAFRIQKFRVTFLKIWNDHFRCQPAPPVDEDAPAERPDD
Assay: Receptor affinity (radioligand binding), A1, [3H]CHA
Parameters: species or system bovine
Conditions: radioligand binding, A2 Ki /A1 Ki

Cn1cnc2c(N[C@@H]3C[C@H]4C[C@@H]3CC4=O)ncnc21 (relative stereo) | > 20
CCN(CC)c1nc2c(N[C@H]3C[C@H]4CC[C@@H]3C4)ncnc2n1C (relative stereo) | 331
CC(C)n1cnc2c(N[C@@H]3C[C@H]4C[C@@H]3C[C@H]4O)ncnc21 (relative stereo) | > 34
COc1ccc2c(c1)[C@@H]1C[C@H]2[C@H](Nc2ncnc3c2ncn3C)C1 (relative stereo) | > 48
CCCn1cnc2c(N[C@@H]3C[C@H]4C[C@@H]3C[C@@H]4O)ncnc21 (relative stereo) | > 39

Task: So what does the record say about Selectivity Ratio (A2 Ki /A1 Ki) for Cn1c(N2CCSCC2)nc2c(N[C@H]3C[C@H]4CC[C@@H]3C4)ncnc21 (relative stereo) ?
Result: 1,259

Task: So what does the record say about Selectivity Ratio (A2 Ki /A1 Ki) for Cn1c(N2CCOCC2)nc2c(N[C@H]3C[C@@H]4C[C@H]3C[C@@H]4O)ncnc21 (relative stereo) ?
Result: > 526

Where these numbers come from: patent US5670501A
